# Measurement protocol: protein stability index of a GFP-peptide fusion (yeast GPS) (PSI 1-4); higher = more stable; sorted into four equal gates, so the index is relative within each strain
# Setup conditions: ubr1∆
Classification field: enter label 1 for protein stability index values not below 3, label 0 for values below it.

Query sequence | Category
NQNICTSVTRRSPVFAL [GRR1] | label 0
PSDVNIDVMKSQIIPLM [SNU114] | label 0
EHEEKEKERETNKKGIK [RPN2] | label 1
LFKYQGHIGAYLIVAGV [PUP1] | label 0
SFYRVEKIKKINYHQYI [SSN2] | label 0
PTLGERLDNLQDIKKAK [DSN1] | label 0
IDFAPTSPFGGARPGRV [RPS9A] | label 0
VCGIIVKQEDMPFNDQG [RET1] | label 0
CSGSGMGGVSALRGMFK [FAS2] | label 1
KRRKTHIHKHVKDEAFD [RET1] | label 1
TKKKRKPTEVNDSENNS [ITC1] | label 1
LLLRCDDRVDKKFVSQI [POP3] | label 1
TVQENELLKSSLQKAGS [AAR2] | label 1
KQEQEEKIKSKKINRRN [YCG1] | label 1
TDYFLPKNYSLHGLRSF [YJL039C/NUP192] | label 0
KSGKFCSHCGCVYVPNF [SNM1] | label 0
YGKVYKAKRQINSGTNS [SSN3] | label 0
VLSALEGKSVDELITEG [RPP2A] | label 1
PEESKPINLQNGEEDEV [YLR335W/NUP2] | label 1
SPPPQTHQSPPPPPQQS [SNF5] | label 0
TSTGTTIVGVKFNNGVV [PUP1] | label 0
ILEDFRVIKDFKKLNSK [YMR153W/NUP53] | label 1
RGGFGGRNRGRPNRRGP [RPS2] | label 1
LVAIFGGQGNTDDYFEE [FAS1] | label 1
LYQIDYLGTKVELPYGA [PRE1] | label 0
AGKWSSKYLIKQIDIPN [ECM29] | label 0
MGKSHGYRSRTRYMFQR [RPL21A] | label 1
KDALSNSILSVRDPWSI [SRB2] | label 1
SATSKPAFSFGAKPEEK [YJL041W/NSP1] | label 0
LTCSLYELYINKLTILG [IRR1] | label 0
VSTAKFSGKYLKYLTKK [RPL22A] | label 1
